Reported viability at 28.5 h, 10 µM values are given for each entry in this list.
EXPERIMENT_SUMMARY: in vitro
TEST_SETTINGS: human, hela cells, % viability
All answers are understood in %, so give the number only.

COMPOUND | QUANTITY_UNIT | viability at 28.5 h, 10 µM
COc1ccccc1NC(=O)CSc1nnc(-c2ccncc2)o1 | % | 87
Cc1cc(C)nc(NC(=O)NS(=O)(=O)Nc2ccccc2Cl)n1 | % | 102
COc1ccc(-c2cc(C(F)(F)F)nc(SCC(=O)Nc3ccc4c(c3)OCO4)n2)cc1OC | % | 101
CCNC(=O)Nc1cc2ccccc2c(-c2cccnc2)n1 | % | 82.3
CN(C)CC(=O)N/N=C/c1ccsc1 [CBK008256C] | % | 110

query: Return value of viability at 28.5 h, 10 µM for input `CCOc1ccc(-c2n[nH]c(=S)n2CCC(=O)N2CCCN(Cc3ccc(C#N)cc3)CC2)cc1` , no commentary.
result: 95.8

query: Return value of viability at 28.5 h, 10 µM for input `O=C(/C=C/c1ccco1)Nc1sc2c(c1C(=O)NCc1ccco1)CCC2` , no commentary.
result: 104

query: Return value of viability at 28.5 h, 10 µM for input `Cc1[nH]c2cc(C(=O)NCCn3nccc3C)ccc2c1C` , no commentary.
result: 92.8

query: Return value of viability at 28.5 h, 10 µM for input O=C1NC2(CCC(=O)N(Cc3ccccc3)CC2)Nc2ccccc21 (stereo not shown) , no commentary.
result: 89.8

query: Return value of viability at 28.5 h, 10 µM for input OC(Cn1cnc(-c2ccccc2)c1-c1ccccc1)Cn1c2ccccc2c2ccccc21 (stereo not shown) , no commentary.
result: 78.2

query: Return value of viability at 28.5 h, 10 µM for input O=C(NCCCC1CCOC1)c1cnn(-c2ccc(F)cc2)c1 (stereo not shown) , no commentary.
result: 92.5

query: Return value of viability at 28.5 h, 10 µM for input `O=C(CSc1nnc(-c2ccccc2O)n1-c1ccccc1)Nc1ccc(N2CCOCC2)cc1` , no commentary.
result: 103

query: Return value of viability at 28.5 h, 10 µM for input `CN(/N=C/c1cc(Br)cs1)c1ccc(Cl)nn1` , no commentary.
result: 94.1

query: Return value of viability at 28.5 h, 10 µM for input `Cc1ccc(-c2c(N3C(=O)c4cccnc4C3=O)n[nH]c2C)cc1` , no commentary.
result: 101

query: Return value of viability at 28.5 h, 10 µM for input `CCn1ncc(S(=O)(=O)Nc2ccc3c(c2)cc(C)n3C)c1C` , no commentary.
result: 95.6

query: Return value of viability at 28.5 h, 10 µM for input `C=CCOc1ccc(-c2nc3s/c(=C4\C(=O)N(Cc5ccccc5F)c5ccccc54)c(=O)n3n2)cc1` , no commentary.
result: 108

query: Return value of viability at 28.5 h, 10 µM for input C=CCN(CC=C)CCOc1c(C)cc(C)cc1Br [CBK266070G] , no commentary.
result: 110

query: Return value of viability at 28.5 h, 10 µM for input `O=C(Cn1c([C@@H]2CCCO2)cc2cccnc21)N1CCCCC1` , no commentary.
result: 90.3

query: Return value of viability at 28.5 h, 10 µM for input `O=C(c1cnn(C(=O)c2ccc3c(=O)n4c(nc3c2)CCC4)c1)c1ccccc1O` , no commentary.
result: 95.7

----------
EXPERIMENT_SUMMARY: in vitro
TEST_SETTINGS: human, hela cells, % viability
Reported viability at 28.5 h, 10 µM values are given for each entry in this list.
All answers are understood in %, so give the number only.

Before answering, review these 4 worked examples.
COMPOUND | QUANTITY | QUANTITY_UNIT | ASSAY_VALUE
CC1CCc2c(sc(NC(=O)Cn3cnc([N+](=O)[O-])n3)c2C(N)=O)C1 (centres unmarked) | viability at 28.5 h, 10 µM | % | 91.3
COC(=O)c1cccc2c3c([nH]c12)CCCC3 | viability at 28.5 h, 10 µM | % | 87.8
COc1ccc(C2(CNC(=O)C(O)COc3ccccc3)CCCC2)cc1OC (centres unmarked) | viability at 28.5 h, 10 µM | % | 88.5
CN(C)CCCN1C(=O)C(O)=C(C(=O)c2ccncc2)C1c1ccccc1 (centres unmarked) | viability at 28.5 h, 10 µM | % | 107

Attention now shifts to the item below.
query: Return value of viability at 28.5 h, 10 µM for input Cc1nn(C)cc1CN(Cc1cccc(F)c1)CC1CCCO1 (centres unmarked) , no commentary.
result: 100

----------
EXPERIMENT_SUMMARY: in vitro
TEST_SETTINGS: human, hela cells, % viability
Param label: returns t when viability at 28.5 h, 10 µM < 90%, returns f otherwise, including exact equality.

CHEMICAL_STRUCTURE | GROUP_LABEL
COc1ccccc1CN(CCN(C)C)C(=O)Cc1c(C)[nH]c(=O)[nH]c1=O | f
O=C(O)CCC(=O)Nc1ccccc1NC(=O)c1ccc(C(F)(F)F)cc1 | f
O=C(O)c1cccc(-c2cn3ccnc3c(N3CCOCC3)n2)c1 | t
COc1ccc(CN2C(=S)N(c3ccc(Cl)cc3)[C@H]3[C@@H]2[C@H]2OC(=O)[C@@H]3C[C@H]2O)cc1 | f

Below: the item to evaluate.
query: Strictly below 90%: is that where viability at 28.5 h, 10 µM of `O=C(c1cc(-c2ccncc2)nc2ccc(Cl)cc12)N1CCN(CCc2ccccc2)CC1` sits?
result: t

----------
Reported viability at 28.5 h, 10 µM values are given for each entry in this list.
EXPERIMENT_SUMMARY: in vitro
TEST_SETTINGS: human, hela cells, % viability
All answers are understood in %, so give the number only.

Before answering, review these 3 worked examples.
COMPOUND | QUANTITY_UNIT | ASSAY_VALUE
Cc1ccc(S(=O)(=O)Nc2ccc(S(=O)(=O)Nc3nccs3)cc2)c([N+](=O)[O-])c1 | % | 85.9
CCc1nc2ccc(C(=O)Nc3ccc(NC(C)=O)cc3)cn2c1N(C)C(=O)Cc1ccccc1 | % | 95.3
COC(=O)Nc1ccccc1N1CCN(CCCCN2CCN(c3ccccc3)C2=O)CC1 [CBK024372C] | % | 91.8

Attention now shifts to the item below.
query: Return value of viability at 28.5 h, 10 µM for input `Cc1c(Cl)c(C(=O)N[C@@H]2CCN(Cc3ccccn3)C[C@H]2O)nn1C` , no commentary.
result: 96

----------
Reported viability at 28.5 h, 10 µM values are given for each entry in this list.
EXPERIMENT_SUMMARY: in vitro
TEST_SETTINGS: human, hela cells, % viability
All answers are understood in %, so give the number only.

Before answering, review these 4 worked examples.
MOLECULE | ASSAY_VALUE
COc1ccccc1N1CCN(CCCCNC(=O)c2ccc(Cl)cc2)CC1 | 93
O=S(=O)(c1ccccc1)C1CC1 | 89
Cc1cc(C)cc(Cn2cc(NCc3ccccc3)c(=O)[nH]c2=O)c1 | 106
CC(=O)Nc1cccc(NC(=O)N2CCCC(CO)C2)c1 (centres unmarked) | 108

Attention now shifts to the item below.
query: Return value of viability at 28.5 h, 10 µM for input `O=C(O)c1ccc(-n2nnnc2SCc2ccc(F)cc2)cc1` , no commentary.
result: 95.8

----------
Reported viability at 28.5 h, 5 µM values are given for each entry in this list.
EXPERIMENT_SUMMARY: in vitro
Set-up: Viability of infected HeLa host cells, resazurin conversion, bulk resorufin fluorescence relative to DMSO
TEST_SETTINGS: human, hela cells; bulk resorufin, mean of 2
All answers are understood in %, so give the number only.

query: Return value of viability at 28.5 h, 5 µM for input O=C(Nc1cc(Cl)nc(Cl)c1)N(Cc1ccc2ccccc2c1)CC1CCNCC1 [CBK049773] , no commentary.
result: 95.6

query: Return value of viability at 28.5 h, 5 µM for input COCCNc1nc2c(c(N3CCCCCC3)n1)CCNCC2 [CBK306724] , no commentary.
result: 97.9

query: Return value of viability at 28.5 h, 5 µM for input COc1ccc(C(C)C)cc1-c1cn2ccnc2c(N2CCN(c3ccncc3)CC2)n1 [CBK066217] , no commentary.
result: 104

query: Return value of viability at 28.5 h, 5 µM for input CC(=O)Nc1ccc(S(=O)(=O)Nc2ccc(C(=O)Nc3ccc(F)cc3)cc2)cc1 [CBK050401] , no commentary.
result: 87.7

----------
EXPERIMENT_SUMMARY: in vitro
TEST_SETTINGS: human, hela cells, % viability
Param label: returns condition met when viability at 28.5 h, 10 µM < 90%, returns condition not met otherwise, including exact equality.

// below: answered compounds
COMPOUND | GROUP_LABEL
O=C(O)c1ccc(NC(=O)c2ccc(S(=O)(=O)N3CCCCC3)cc2)cc1 [CBK267813] | condition not met
CC(=O)Nc1ccc(C(=O)NCc2ccc(S(N)(=O)=O)cc2)cc1 [CBK263642] | condition not met
O=C(Cn1ncc2cccn2c1=O)c1ccc(F)cc1 [CBK283627] | condition met
CCCn1c(SCC(=O)N2CCN(C(=O)c3cccs3)CC2)n[nH]c1=O [CBK297109] | condition not met
Fc1ccc(-c2cc(Nc3ccccc3)ncn2)cc1F [CBK090913] | condition not met
CC(C)(C)C(=O)Nc1ccc(Cc2ccc(NC(=O)C(C)(C)C)c(C(=O)O)c2)cc1C(=O)O [CBK261393] | condition not met
O=C(Cn1ncn2c(cc3ccsc32)c1=O)N1CCCCC1 [CBK284195] | condition met
Cc1cnn(CC2CCCCN2CC(=O)NCc2ccccn2)c1 (centres unmarked) [CBK304041] | condition not met
NS(=O)(=O)c1ccc(CCNC=C2C(=O)c3ccccc3C2=O)cc1 [CBK262997] | condition not met
Cc1oc(C2CC2)cc1C(=O)N1CCC(c2ccncc2)CC1 [CBK283514] | condition not met

query: Strictly below 90%: is that where viability at 28.5 h, 10 µM of CCCC(=O)Nc1sc(C)c(C)c1C(=O)Nc1ccccc1OC [CBK262455] sits?
result: condition not met

query: Strictly below 90%: is that where viability at 28.5 h, 10 µM of CCOC(=O)C1CCCN(S(=O)(=O)c2cc(C)c(Cl)cc2C)C1 (centres unmarked) [CBK044846] sits?
result: condition not met

query: Strictly below 90%: is that where viability at 28.5 h, 10 µM of O=C(NC(=O)N1CCOCC1)c1csnn1 [CBK005561] sits?
result: condition met

query: Strictly below 90%: is that where viability at 28.5 h, 10 µM of O=C(c1cc2c(F)cccc2[nH]1)N(CCO)CCc1ccncc1 [CBK281644] sits?
result: condition not met

query: Strictly below 90%: is that where viability at 28.5 h, 10 µM of Cn1c(-c2ccccc2)c(C(=O)C(N)=O)c2ccccc21 [CBK288465] sits?
result: condition not met
